# TARGET SYSTEM: FAAH (Mus musculus, UniProt O08914)
# Sequence (O08914 1-579): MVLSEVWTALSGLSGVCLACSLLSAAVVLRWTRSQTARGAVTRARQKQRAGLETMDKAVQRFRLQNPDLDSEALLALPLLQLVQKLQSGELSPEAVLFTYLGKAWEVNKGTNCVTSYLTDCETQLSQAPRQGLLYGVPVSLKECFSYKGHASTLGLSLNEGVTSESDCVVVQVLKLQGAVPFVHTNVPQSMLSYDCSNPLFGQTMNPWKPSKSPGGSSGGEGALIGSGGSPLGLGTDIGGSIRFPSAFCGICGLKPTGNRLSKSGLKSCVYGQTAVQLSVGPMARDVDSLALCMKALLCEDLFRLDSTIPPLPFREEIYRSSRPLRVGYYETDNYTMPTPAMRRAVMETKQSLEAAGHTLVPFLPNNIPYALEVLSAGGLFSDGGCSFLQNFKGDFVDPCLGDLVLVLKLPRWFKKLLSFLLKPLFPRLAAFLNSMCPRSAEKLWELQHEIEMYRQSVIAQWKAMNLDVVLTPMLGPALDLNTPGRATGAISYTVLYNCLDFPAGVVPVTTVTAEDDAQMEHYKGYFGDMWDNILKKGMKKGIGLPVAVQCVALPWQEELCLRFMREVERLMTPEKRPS
# PROTOCOL NOTES: In vitro competitive activity-based protein profiling, FAAH, mouse
# DETAILS: read-out: FAAH % inh. 1 μM (mouse)
EXPERIMENTAL READOUT: inhibition at 1 µM

molecule="O=C(O)c1ccn(C(=O)N2CCN(Cc3ccc(C(F)(F)F)c(-c4nnco4)c3)CC2)n1 [Example 9]" experimental_readout="inhibition at 1 µM" value="0 to 25%"

stdin: Field request: inhibition at 1 µM | item: O=C(O)c1ccn(C(=O)N2CCN(Cc3ccc(Cl)cc3N3CCN(C4CC4)CC3)CC2)n1 [Example 97]
stdout: 0 to 25%

====

# TARGET SYSTEM: FAAH (Mus musculus)
# PROTOCOL NOTES: In vitro competitive activity-based protein profiling, FAAH, mouse
# DETAILS: read-out: FAAH % inh. 1 μM (mouse)
EXPERIMENTAL READOUT: inhibition at 1 µM

compound="O=C(O)c1ccn(C(=O)N2CCC3(CCN(Cc4cc(Cl)ccc4C(F)(F)F)C3)CC2)n1 [Example 43]" experimental_readout="inhibition at 1 µM" value="> 75%"
compound="O=C(O)c1ccn(C(=O)N2CCC3(CCCN3Cc3cc(N4CCCC4)cc(C(F)(F)F)c3)CC2)n1 [Example 88]" experimental_readout="inhibition at 1 µM" value="0 to 25%"
compound="O=C(O)c1ccn(C(=O)N2CC3CN(Cc4cccc(OC(F)(F)F)c4)CC3C2)n1 (stereo not shown) [Example 117]" experimental_readout="inhibition at 1 µM" value="50 to 75%"
compound="O=C(O)c1ccn(C(=O)N2CCN(Cc3cccc(Cl)c3N3C4CCC3COC4)CC2)n1 [Example 212]" experimental_readout="inhibition at 1 µM" value="0 to 25%"
compound="O=C(O)c1nn(C(=O)N2CCC3(CCN(Cc4ccc(N5CCCC5)cc4C(F)(F)F)C3)CC2)cc1Cl [Example 138]" experimental_readout="inhibition at 1 µM" value="50 to 75%"

stdin: Field request: inhibition at 1 µM | item: O=C(O)c1ccn(C(=O)N2CCN(Cc3ccc(C(F)(F)F)cc3Cl)CC2)n1 [Example 91]
stdout: 0 to 25%

====

inhibition at 1 µM values by entry
# TARGET SYSTEM: FAAH (Mus musculus, UniProt O08914)
# PROTOCOL NOTES: In vitro competitive activity-based protein profiling, FAAH, mouse
# DETAILS: read-out: FAAH % inh. 1 μM (mouse)

compound=CN(Cc1ccc(C(F)(F)F)cc1N1CCOCC1)C1(C)CCN(C(=O)n2ccc(C(=O)O)n2)CC1 experimental_readout="inhibition at 1 µM" value="0 to 25%"

stdin: Field request: inhibition at 1 µM | item: O=C(O)c1ccn(C(=O)N2CCN(Cc3ccc(Oc4ccc(Cl)cc4)cc3)CC2)n1
stdout: > 75%

stdin: And what about the compound O=C(O)c1ccn(C(=O)N2CCN(Cc3ccc(C(F)(F)F)cc3N3CC4COCC4C3)CC2)n1 (stereo not shown) ?
stdout: 0 to 25%

stdin: And what about the compound C#Cc1ccc(CN2CCN(C(=O)n3ccc(C(=O)O)n3)CC2)cc1 ?
stdout: 0 to 25%
